reported-property: melting point

Worked cases, answers included:
CC(C(=O)Nc1ccc(-n2nc(C(F)(F)F)cc2C(F)(F)F)cc1)c1ccc(C(=O)c2cccs2)cc1 (centres unmarked) [Example 178] = < 100 °C
O=C(Nc1ccc(-n2nc(C(F)(F)F)cc2C(F)(F)F)cc1)c1ccc(O)c(O)c1 [Example 181] = 233 to 235 °C
O=C(Cc1cc2ccccc2[nH]1)Nc1ccc(-n2nc(C(F)(F)F)cc2C(F)(F)F)cc1 [Example 170] = 176 to 178 °C
O=C(Nc1ccc(-n2nc(C(F)(F)F)cc2C(F)(F)F)cc1)c1ccc(CO)cc1 [Example 107] = 213 to 214 °C
COc1cc(Cl)ccc1C(=O)Nc1ccc(-n2nc(C(F)(F)F)cc2C(F)(F)F)cc1 [Example 176] = 178 to 180 °C

Dear reader, for each entry below, please note its melting point.
1. FC(F)(F)c1cc(C(F)(F)F)n(-c2ccc(/C=C/c3ccccc3Cl)cc2)n1 [Example 154]
2. O=C(Nc1ccc(-n2nc(C(F)(F)F)cc2C(F)(F)F)cc1)c1ccc(Cl)cc1O [Example 220]
3. O=C(Nc1ccc(-n2nc(C(F)(F)F)cc2C(F)(F)F)cc1)c1cc(F)cc(F)c1F [Example 231]

[out]
1: 81 to 82 °C; 2: 200 to 202 °C; 3: 169 to 170 °C

----------
Test system: Human peripheral blood mononuclear cells
Assay: Human Concanavalin-A Proliferation Assay (Con HU Assay)
Type: cell-based
Details: Homo sapiens, PBMC, concanavalin-A stimulated human PBMC, tritiated thymidine
reported-property: pIC50
Numbers only, as −log10 of the molar value.

O=C(Nc1ccc(-n2nc(C(F)(F)F)cc2C(F)(F)F)nc1)c1cc(F)c(F)cc1Cl [Example 262] = 6.38
N#Cc1cc(C(F)(F)F)nn1-c1ccc(NC(=O)c2ccncc2Cl)cc1 [Example 351] = 6.51
[N-]=[N+]=Nc1ccc(C(=O)Nc2ccc(-n3nc(C(F)(F)F)cc3C(F)(F)F)cc2)cc1 [Example 60] = 6.53
Cc1cc(C(F)(F)F)nn1-c1ccc(NC(=O)c2ccc(Cl)cc2)cc1 [Example 281] = 5.97
N#Cc1cc(C(F)(F)F)nn1-c1ccc(NC(=O)c2ccncc2F)cc1 [Example 304] = 6.58

Below is a list of compounds. For each, state its recorded pIC50.
1. N#Cc1cccc(C(=O)Nc2ccc(-n3nc(C(F)(F)F)cc3C(F)(F)F)cc2)c1 [Example 137]
2. O=C(Nc1ccc(-n2nc(C(F)(F)F)cc2C(F)(F)F)cc1)c1sccc1Br [Example 161]
3. Cc1cccc(C(=O)Nc2ccc(-n3nc(C(F)(F)F)cc3C(F)(F)F)cc2)c1 [Example 75]

[out]
1: 6.92; 2: 6.64; 3: 6.43

----------
Tested on: Human peripheral blood mononuclear cells
Assay: Human Concanavalin-A Proliferation Assay (Con HU Assay)
Type: cell-based
Conditions: Homo sapiens, PBMC, concanavalin-A stimulated human PBMC, tritiated thymidine
Exercise: for every item that follows, state its recorded pIC50.
One number for each entry, as −log10 of the molar value.

Before answering, review these 3 worked examples.
O=C(Nc1ccc(-n2nc(C(F)(F)F)cc2C(F)(F)F)cc1)c1ccc(I)cc1 [Example 69] = 6.30
N#Cc1cc(-c2nccs2)nn1-c1ccc(NC(=O)c2ccncc2F)cc1 [Example 338] = 6.79
O=C(Nc1ccc(F)cc1)Nc1ccc(-n2nc(C(F)(F)F)cc2C(F)(F)F)cc1 [Example 32] = 5.07

// switching to the query compound
Briefly, pIC50 measured for Cc1ccccc1C(=O)Nc1ccc(-n2nc(C(F)(F)F)cc2C(F)(F)F)cc1 [Example 96] : 6.47
